All figures here come from patent US20260356851A1.

- ASSAY TARGET: pERK1/2 (Thr202/Tyr204), NCI-1H358 (KRAS G12C) (Homo sapiens, UniProt P01116, G12C)
- Construct: pERK1/2 HTRF read-out
- Sequence (P01116 1-188 isoform P01116-2 G12C): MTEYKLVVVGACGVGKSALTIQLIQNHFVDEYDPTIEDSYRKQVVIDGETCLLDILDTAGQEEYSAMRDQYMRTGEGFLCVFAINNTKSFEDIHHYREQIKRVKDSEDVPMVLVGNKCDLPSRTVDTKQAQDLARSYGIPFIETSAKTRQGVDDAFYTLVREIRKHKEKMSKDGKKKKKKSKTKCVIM
- TEST SUMMARY: Assay of intracellular pERK1/2 (Thr202/Tyr204) phosphorylation in NCI-H358 cells (KRAS G12C)
- Type: cell-based
- CONDITIONS USED: pERK1/2, 2 days, read-out: NCI-H358 (KRAS G12C) IC50
MEASUREMENT NAME: pIC50
Note on pIC50: it is the negative log10 of concentration, concentration in mol/L.

Look up pIC50: CC[C@H]1COc2nc(-c3c(C(F)(F)F)c(C)cc4[nH]ncc34)c(F)c3nc(OC[C@@]45CCCN4C[C@H](F)C5)nc(c23)N1C(C)c1cccnc1N (stereo partly drawn) 8.70

Return reported pIC50; argument: CC(c1cccnc1N)N1CCOc2nc(-c3cc(N)ccc3C(F)(F)F)c(F)c3nc(OC[C@@H]4CCCN4C)nc1c23 (stereo partly drawn) 8.22
